Target sequence: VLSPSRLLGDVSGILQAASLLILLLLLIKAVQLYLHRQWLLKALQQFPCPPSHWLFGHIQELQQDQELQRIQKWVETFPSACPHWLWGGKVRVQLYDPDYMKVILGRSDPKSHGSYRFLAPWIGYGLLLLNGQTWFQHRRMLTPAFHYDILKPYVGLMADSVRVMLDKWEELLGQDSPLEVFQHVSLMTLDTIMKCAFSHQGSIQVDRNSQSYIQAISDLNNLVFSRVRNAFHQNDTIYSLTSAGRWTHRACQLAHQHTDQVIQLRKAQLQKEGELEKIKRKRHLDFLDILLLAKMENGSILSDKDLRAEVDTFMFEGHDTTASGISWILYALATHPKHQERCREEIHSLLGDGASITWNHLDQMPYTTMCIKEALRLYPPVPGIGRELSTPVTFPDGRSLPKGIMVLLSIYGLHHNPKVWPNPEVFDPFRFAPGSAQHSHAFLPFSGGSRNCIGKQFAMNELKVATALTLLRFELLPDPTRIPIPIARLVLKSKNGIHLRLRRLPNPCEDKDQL
ENDPOINT: pIC50
Numbers only, as −log10 of the molar value.

CC(=O)N1CCC(COc2ccc(-c3ccn[nH]3)nc2C)CC1    5.07
O=c1ccc2cc(COc3ccc(-c4ccn[nH]4)nc3)ccc2o1    5.80
CS(=O)(=O)c1cccc(COc2ccc(-n3ccnn3)nc2)c1    6.19

Hey, quick one: what's pIC50 for each of these?
1. COC(=O)N1CCC(COc2ccc(-c3ccn[nH]3)nc2)CC1
2. CN(CC(=O)N1CCC[C@@H](COc2ccc(-c3ccn[nH]3)nc2)C1)C(=O)OC(C)(C)C
3. CC(=O)N1CCCC[C@H]1CCOc1ccc(-c2ccn[nH]2)nc1

Reply:
1: 6.51; 2: 6.03; 3: 6.28

###

What pIC50 was measured for each of the following?
Protein target, amino acids: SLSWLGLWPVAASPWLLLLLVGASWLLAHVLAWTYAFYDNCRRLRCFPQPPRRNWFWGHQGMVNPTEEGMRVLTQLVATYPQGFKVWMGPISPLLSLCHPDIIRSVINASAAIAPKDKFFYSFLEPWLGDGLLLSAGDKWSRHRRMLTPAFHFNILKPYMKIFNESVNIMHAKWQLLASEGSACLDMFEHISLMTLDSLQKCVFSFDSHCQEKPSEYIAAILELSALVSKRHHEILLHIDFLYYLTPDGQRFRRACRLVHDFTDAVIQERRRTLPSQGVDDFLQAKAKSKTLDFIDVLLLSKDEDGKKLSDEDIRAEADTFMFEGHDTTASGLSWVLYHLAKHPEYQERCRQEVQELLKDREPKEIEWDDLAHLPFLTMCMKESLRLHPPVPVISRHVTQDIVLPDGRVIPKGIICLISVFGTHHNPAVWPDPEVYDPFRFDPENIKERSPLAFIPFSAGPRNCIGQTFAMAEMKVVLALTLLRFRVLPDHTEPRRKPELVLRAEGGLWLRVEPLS
Answers are plain numbers, as −log10 of the molar value.

Reference set, count: 4
CS(=O)(=O)c1cccc(COc2ccc(-c3cnsc3)nc2)c1    5.80
CC(C)OC(=O)N1CC(S(=O)(=O)N2CCC[C@H](COc3ccc(-c4ccn[nH]4)nc3)C2)C1    8.44
COc1ccc(COc2ccc(-c3ccn[nH]3)nc2)cc1F    7.92
O=C(CN1CCCOC1=O)N1CCC[C@@H](COc2ccc(-c3ccn[nH]3)nc2)C1    5.46

Hey, quick one: what's pIC50 for each of these?
1. CC(=O)N1CCC(COc2ccc(-c3c[nH]nn3)nc2)CC1
2. CC(=O)N1CCC(F)(COc2ccc(-c3ccn[nH]3)nc2)CC1
3. O=S1(=O)CCC(COc2ccc(-c3cn[nH]c3)nc2)CC1
4. O=C(NCCC(=O)N1CCC[C@@H](COc2ccc(-c3ccn[nH]3)nc2)C1)C1CC(F)(F)C1
5. CC(C)(C)OC(=O)NCCCC(=O)N1CCC[C@@H](COc2ccc(-c3ccn[nH]3)nc2)C1

Reply:
5.51
7.62
5.42
7.80
7.74

###

SYSTEM: human CYP4F2 (Homo sapiens)
Construct: host or cells: Escherichia coli (membrane fraction)
METHOD_DESCRIPTION: CYP4F2 inhibition test (Test Example 1)
Assay type: biochemical
TEST_SETTINGS: Escherichia coli membrane fraction expressing human CYP4F2, 2.5 μM luciferine derivative, room temperature 60 minutes, luminescence
ENDPOINT: log10 of IC50 (log10 of the value in µM)
Give log10 of IC50, with IC50 taken in µM.

CS(=O)(=O)N1CCC(COc2ccc(-c3ccn[nH]3)nc2)CC1    -0.19
CS(=O)(=O)c1cccc(COc2ccc(-n3ccnn3)nc2)c1    0.49
CC(C)(C)c1ccc(COc2ccc(-c3ccn[nH]3)nc2)cc1    -0.36
CCOC(=O)N1CCN(CCOc2ccc(-c3ccn[nH]3)cn2)CC1 [Compound B, reference compound]    1.56

Would you kindly look at the next entry?
Ask: Item `CC(C)C(=O)N1CCC(COc2ccc(-c3ccn[nH]3)nc2)CC1` with human CYP4F2 (Homo sapiens) - log10 of IC50?
Reply: -0.74

###

Target chain: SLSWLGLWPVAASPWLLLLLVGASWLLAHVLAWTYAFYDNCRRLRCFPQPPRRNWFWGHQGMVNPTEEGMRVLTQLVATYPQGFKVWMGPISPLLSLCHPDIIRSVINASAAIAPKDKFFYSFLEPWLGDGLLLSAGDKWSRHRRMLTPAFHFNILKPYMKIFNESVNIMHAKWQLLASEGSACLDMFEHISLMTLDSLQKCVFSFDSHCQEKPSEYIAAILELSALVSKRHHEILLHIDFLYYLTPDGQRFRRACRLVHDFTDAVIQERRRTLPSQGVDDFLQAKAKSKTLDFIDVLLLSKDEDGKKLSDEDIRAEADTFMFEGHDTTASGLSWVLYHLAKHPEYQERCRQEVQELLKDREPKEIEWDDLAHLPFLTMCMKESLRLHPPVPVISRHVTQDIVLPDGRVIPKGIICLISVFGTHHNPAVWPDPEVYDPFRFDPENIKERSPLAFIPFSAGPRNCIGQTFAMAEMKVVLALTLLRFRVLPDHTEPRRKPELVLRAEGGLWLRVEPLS
ENDPOINT: pIC50
Answers are plain numbers, as −log10 of the molar value.

CCCCNC(=O)NCC(=O)N1CCC[C@@H](COc2ccc(-c3ccn[nH]3)nc2)C1 [Example 3-41]    6.74
CC(C)C(=O)N1CCC(CCOc2ccc(-c3ccn[nH]3)nc2)CC1 [Example 4-2]    7.30

Hey, quick one: what's pIC50 for each of these?
1. COCc1cn[nH]c1-c1ccc(OCc2cccc(S(C)(=O)=O)c2)cn1 [Example 49-2]
2. O=S(=O)(C1CC1)N1CCC[C@H](COc2ccc(-c3ccn[nH]3)nc2)C1 [Example 10-8]
3. CC(C)c1cccc(COc2ccc(-c3ccn[nH]3)nc2)c1 [53-3]
4. CN(C)S(=O)(=O)c1ccc(COc2ccc(-c3ccn[nH]3)nc2)cc1 [Example 25-3]

Reply:
1: 4.55; 2: 6.89; 3: 6.85; 4: 6.85

Hey, quick one: what's pIC50 for each of these?
1. COC(=O)N1CCC(CCOc2ccc(-c3ccn[nH]3)nc2)C(C)C1 (single isomer, unassigned) [Example 1-16-2]
2. CC(=O)N(C)[C@H]1C[C@@H](COc2ccc(-c3ccn[nH]3)nc2)C1 [Example 17-1-1]

Reply:
6.59
7.70

###

What pIC50 was measured for each of the following?
SYSTEM: 20-HETE producing enzymes (human kidney microsome)
METHOD_DESCRIPTION: Inhibition test against 20-HETE producing enzymes using human kidney microsomes (Test Example 2)
TEST_SETTINGS: human kidney microsome 250 μg/mL, 20 μM arachidonic acid, 37° C. 45 minutes, 20-HETE by LC-MS/MS
Give bare numbers, as −log10 of the molar value.

CC(=O)N1CCC(COc2cnc(-c3ccn[nH]3)c(F)c2)CC1 [Example 24-1]    7.59
CCOC(=O)N1CCN(CCOc2ccc(-c3ccn[nH]3)cn2)CC1 [Compound B, reference compound]    4.81
CC(=O)N1CCN(CCOc2ccc(-c3ccn[nH]3)cc2)CC1 [Compound A, reference compound]    6.39

Hey, quick one: what's pIC50 for each of these?
1. CC(=O)N1CCC(COc2ccc(-c3ccn[nH]3)nc2)CC1 [Example 1-1]
2. COC(=O)N1CCC(CCOc2ccc(-c3ccn[nH]3)nc2)CC1 [Example 1-31]
3. COC(=O)N1CCC(CCOc2ccc(-c3[nH]ncc3C)nc2)CC1 [Example 1-40]
4. Cc1cn[nH]c1-c1ccc(OCc2cccc(S(C)(=O)=O)c2)cn1 [Example 25-4]
5. O=S(=O)(c1cccc(COc2ccc(-c3ccn[nH]3)nc2)c1)C1CC1 [Example 14-7]

Reply:
1. 7.79
2. 7.55
3. 7.87
4. 7.90
5. 7.95
